- System: NK-YS (IL-2 2.5 ng/mL)
- measurement.description: percent inhibition of viability; higher = more inhibition;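 further: normalised to DMSO-only wells as negative and benzethonium chloride as positive control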
- cond: 72 h; 1 nM
outcome.measure: percent inhibition of viability

compound="COc1cccc2c1C(=O)c1c(O)c3c(c(O)c1C2=O)C[C@@](O)(/C(CO)=N/NC(=O)CCCCCN1C(=O)C=CC1=O)C[C@@H]3O[C@H]1C[C@H](N)[C@H](O)[C@H](C)O1 [Aldoxorubicin] (max concentration tested 1000 nM)" outcome_measure="percent inhibition of viability" observed_value=-3.37%
compound="CN(C)CCN1C(=O)c2cccc3cc(N)cc(c23)C1=O [Amonafide] (max concentration tested 10000 nM)" outcome_measure="percent inhibition of viability" observed_value=2.33%
compound="CC(C)c1c(C(=O)Nc2ccccc2)c(-c2ccccc2)c(-c2ccc(F)cc2)n1CC[C@@H](O)C[C@@H](O)CC(=O)O [Atorvastatin] (max concentration tested 10000 nM)" outcome_measure="percent inhibition of viability" observed_value=0.24%
compound="Cc1cc(Nc2nc(N[C@@H](C)c3ncc(F)cn3)ncc2Cl)[nH]n1 [AZD1480] (max concentration tested 1000 nM)" outcome_measure="percent inhibition of viability" observed_value=-0.67%
compound="COc1nc(N)nc2c1ncn2[C@@H]1O[C@H](CO)[C@@H](O)[C@@H]1O [Nelarabine] (max concentration tested 10000 nM)" outcome_measure="percent inhibition of viability" observed_value=2.42%
compound="CC/C(=C(\\c1ccc(O)cc1)c1ccc(OCCN(C)C)cc1)c1ccccc1 [4-hydroxytamoxifen] (max concentration tested 10000 nM)" outcome_measure="percent inhibition of viability" observed_value=-2.09%
compound="C[C@@H]1C[C@H]2[C@@H]3CCC4=CC(=O)C=C[C@]4(C)[C@@]3(F)[C@@H](O)C[C@]2(C)[C@@]1(O)C(=O)CO [Dexamethasone] (max concentration tested 10000 nM)" outcome_measure="percent inhibition of viability" observed_value=-5.2%
compound="CC(C)Oc1cc(Nc2nc(N[C@@H](C)c3ccc(F)cn3)ncc2Cl)n[nH]1 [AZ-23] (max concentration tested 1000 nM)" outcome_measure="percent inhibition of viability" observed_value=0.81%
compound="CC(C)[C@H](C(=O)Nc1ccc(C(=O)NO)cc1)c1ccccc1 [AR-42] (max concentration tested 10000 nM)" outcome_measure="percent inhibition of viability" observed_value=-6.36%
compound="Cc1cccc(-c2nn3c(c2-c2ccnc4ccc(C(N)=O)cc24)CCC3)n1 [Galunisertib] (max concentration tested 1000 nM)" outcome_measure="percent inhibition of viability" observed_value=-4.05%
compound="O=C(O)CCCc1ccc(N(CCCl)CCCl)cc1 [Chlorambucil] (max concentration tested 10000 nM)" outcome_measure="percent inhibition of viability" observed_value=-6.87%
compound="O=C(NC[C@H](O)CO)c1ccncc1Nc1ccc(I)cc1F [Pimasertib] (max concentration tested 10000 nM)" outcome_measure="percent inhibition of viability" observed_value=-5.36%
compound="Cn1ncnc1[C@H]1c2n[nH]c(=O)c3cc(F)cc(c23)N[C@@H]1c1ccc(F)cc1 [Talazoparib] (max concentration tested 1000 nM)" outcome_measure="percent inhibition of viability" observed_value=-0.36%
compound="CS(=O)(=O)N1CCN(Cc2cc3nc(-c4cccc5[nH]ncc45)nc(N4CCOCC4)c3s2)CC1 [Pictilisib] (max concentration tested 10000 nM)" outcome_measure="percent inhibition of viability" observed_value=0.04%
compound="CN[C@@H](C)C(=O)N[C@H]1CN(C(=O)CC(C)C)CC[C@H]2CC[C@@H](C(=O)NC(c3ccccc3)c3ccccc3)N2C1=O [AT-406] (max concentration tested 10000 nM)" outcome_measure="percent inhibition of viability" observed_value=-5.59%
compound="O=C1NC(=O)[C@@H](c2cn3c4c(cccc24)CCC3)[C@@H]1c1c[nH]c2ccccc12 [Tivantinib] (max concentration tested 1000 nM)" outcome_measure="percent inhibition of viability" observed_value=-2.63%
compound="Cc1csc(-c2nnc(Nc3ccc(Oc4ncccc4-c4ccnc(N)n4)cc3)c3ccccc23)c1 [AMG-900] (max concentration tested 1000 nM)" outcome_measure="percent inhibition of viability" observed_value=-3.39%
compound="CC1(C)NC(=O)N(c2ccc([N+](=O)[O-])c(C(F)(F)F)c2)C1=O [Nilutamide] (max concentration tested 10000 nM)" outcome_measure="percent inhibition of viability" observed_value=-5.09%
compound="CN(N=O)C(=O)N[C@@H](C=O)[C@@H](O)[C@H](O)[C@H](O)CO [Streptozocin] (max concentration tested 10000 nM)" outcome_measure="percent inhibition of viability" observed_value=-3.08%
compound="C[C@]12C=CC(=O)C=C1CC[C@@H]1[C@@H]2[C@@H](O)C[C@@]2(C)[C@H]1CC[C@]2(O)C(=O)CO [Prednisolone] (max concentration tested 10000 nM)" outcome_measure="percent inhibition of viability" observed_value=-2.75%

* * *

- Test system: normal primary NK cells, pool 3 (3 donors) (IL-2 2.5 ng/mL)
- measurement.description: percent inhibition of viability; higher = more inhibition
- cond: 72 h; 10000 nM
Reported percent inhibition of viability values for the following compounds.
outcome.measure: percent inhibition of viability

compound="O=C(O)CCCc1ccc(N(CCCl)CCCl)cc1 [Chlorambucil] (max concentration tested 10000 nM)" outcome_measure="percent inhibition of viability" observed_value=53%
compound="O=C(CCCCCCC(=O)Nc1ccc([C@H]2O[C@@H](CSc3nc(-c4ccccc4)c(-c4ccccc4)o3)C[C@@H](c3ccc(CO)cc3)O2)cc1)NO [Tubacin] (max concentration tested 10000 nM)" outcome_measure="percent inhibition of viability" observed_value=15.8%
compound="Cc1ccc(Nc2nccc(N(C)c3ccc4c(C)n(C)nc4c3)n2)cc1S(N)(=O)=O [Pazopanib] (max concentration tested 10000 nM)" outcome_measure="percent inhibition of viability" observed_value=-2.21%
compound="C=CCN(/C=C1/C(=O)O[C@H](COC)[C@@]2(C)C1=C(O)C(=O)C1=C2[C@H](OC(C)=O)C[C@]2(C)C(=O)CC[C@@H]12)CC=C [Sonolisib] (max concentration tested 10000 nM)" outcome_measure="percent inhibition of viability" observed_value=31.2%

* * *

- Tested on: normal primary NK cells, pool 2 (3 donors) (IL-2 2.5 ng/mL)
- measurement.description: percent inhibition of viability; higher = more inhibition
- cond: 72 h; 10000 nM
outcome.measure: percent inhibition of viability (%)

molecule="CCn1c(C(=O)N(C2CC2)C2CC2)cc2c3c(ncn3C)c(Nc3cc(C)n(C)n3)nc21 (max concentration tested 10000 nM)" target="normal primary NK cells, pool 2 (3 donors) (IL-2 2.5 ng/mL)" scale_unit=% observed_value=49
molecule="COc1cc(OC)c(/C=C/S(=O)(=O)Cc2ccc(OC)c(NCC(=O)O)c2)c(OC)c1 [Rigosertib] (max concentration tested 10000 nM)" target="normal primary NK cells, pool 2 (3 donors) (IL-2 2.5 ng/mL)" scale_unit=% observed_value=37.4
molecule="CN(N=O)C(=O)N[C@@H](C=O)[C@@H](O)[C@H](O)[C@H](O)CO [Streptozocin] (max concentration tested 10000 nM)" target="normal primary NK cells, pool 2 (3 donors) (IL-2 2.5 ng/mL)" scale_unit=% observed_value=-12.2
molecule="CCCCCCCCc1ccc(CCC(N)(CO)CO)cc1 [Fingolimod] (max concentration tested 10000 nM)" target="normal primary NK cells, pool 2 (3 donors) (IL-2 2.5 ng/mL)" scale_unit=% observed_value=101

* * *

- Tested on: normal primary NK cells, pool 3 (3 donors) (IL-2 2.5 ng/mL)
- measurement.description: percent inhibition of viability; higher = more inhibition
- cond: 72 h; 1000 nM
outcome.measure: percent inhibition of viability (%)

compound="CC1(C)CCC(c2ccc(Cl)cc2)=C(CN2CCN(c3ccc(C(=O)NS(=O)(=O)c4ccc(N[C@H](CCN5CCOCC5)CSc5ccccc5)c(S(=O)(=O)C(F)(F)F)c4)cc3)CC2)C1 [Navitoclax] (max concentration tested 10000 nM)" target="normal primary NK cells, pool 3 (3 donors) (IL-2 2.5 ng/mL)" scale_unit=% observed_value=87.2
compound="Nc1nc(Nc2ccc3c(c2)CC[C@@H](N2CCCC2)CC3)nn1-c1cc2c(nn1)-c1ccccc1CCC2 [BGB324] (max concentration tested 10000 nM)" target="normal primary NK cells, pool 3 (3 donors) (IL-2 2.5 ng/mL)" scale_unit=% observed_value=23.1
compound="C=CCn1c(=O)c2cnc(Nc3ccc(N4CCN(C)CC4)cc3)nc2n1-c1cccc(C(C)(C)O)n1 [MK1775] (max concentration tested 10000 nM)" target="normal primary NK cells, pool 3 (3 donors) (IL-2 2.5 ng/mL)" scale_unit=% observed_value=5.21
compound="CCn1c(C(=O)N(C2CC2)C2CC2)cc2c3c(ncn3C)c(Nc3cc(C)n(C)n3)nc21 (max concentration tested 10000 nM)" target="normal primary NK cells, pool 3 (3 donors) (IL-2 2.5 ng/mL)" scale_unit=% observed_value=6.54
compound="NC(=O)NO [Hydroxyurea] (max concentration tested 100000 nM)" target="normal primary NK cells, pool 3 (3 donors) (IL-2 2.5 ng/mL)" scale_unit=% observed_value=8.4
compound="C[C@@H](C(=O)O)c1ccc(-c2ccccc2)c(F)c1 [Tarenflurbil] (max concentration tested 10000 nM)" target="normal primary NK cells, pool 3 (3 donors) (IL-2 2.5 ng/mL)" scale_unit=% observed_value=-2.07
compound="O=C(O)c1ccc(-c2c[nH]c3ncc(-c4ccccc4)cc23)cc1C1CCCC1 (max concentration tested 10000 nM)" target="normal primary NK cells, pool 3 (3 donors) (IL-2 2.5 ng/mL)" scale_unit=% observed_value=2.66
